Entry source: the supplement of paper PMC10567573

Collected protein stability index values appear next to each entry.
B1: PHTF1 (parent)
chain: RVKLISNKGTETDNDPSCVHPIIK

# Variants of: B1
# experimental details: protein stability index of a GFP-peptide fusion (GPS, HEK-293T) (PSI 1-6); higher = more stable;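 further: lentivirally expressed fusions sorted by FACS into six bins by GFP to DsRed ratio, PSI derived from sequencing read proportions per bin multiplied by bin number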
# condition: c terminus: a fixed tail appended
quantity name: protein stability index

> print(dat)
    mutation.id            quantity.name  result
 1          N7R  protein stability index    3.47
 2         P21V  protein stability index    3.46
 3         P21Q  protein stability index    3.82
 4         T12K  protein stability index    4.49
 5         C18V  protein stability index    4.58
 6         D15K  protein stability index    3.79
 7         P16Y  protein stability index    3.13
 8          K8P  protein stability index    3.64
 9         T12N  protein stability index    4.26
10         E11C  protein stability index    3.69
11          G9N  protein stability index    4.17
12          K3W  protein stability index    2.56
13         P16S  protein stability index     4.4
14         P16F  protein stability index    3.48
15          R1H  protein stability index    4.12
16          S6V  protein stability index    3.52
17         I23L  protein stability index    4.47
18         P21A  protein stability index    3.72
19         P21H  protein stability index    4.03
20         N14Y  protein stability index    3.73
21          K3P  protein stability index    4.55
22          S6Y  protein stability index    3.34
